# Test system: 282377-053-R-J1-PDC complex spheroids, viability
# ASSAY_SUMMARY: Anticancer human tumor 282377-053-R-J1-PDC patient-derived colon adenocarcinoma cell line growth inhibition [GQUAD]
# COND: second compound 0.0316 µM; first compound 0.316 µM; stronger effect = lower value
Quick reference: viability, T/C of the listed items.
Kindly answer with a numeric value in %, unit omitted.

Need viability, T/C, item C#Cc1c(F)ccc2cc(O)cc(-c3ncc4c(N5CC6CCC(C5)N6)nc(OCC56CCCN5CC(F)C6)nc4c3F)c12 (centres undefined) + Cc1[nH]c2ccc(F)cc2c1-c1nc2c3cccnc3c3ncccc3c2[nH]1
82.2

Need viability, T/C, item CC(=O)O[C@H]1C(=O)[C@@]2(C)[C@H]([C@H](OC(=O)c3ccccc3)[C@]3(O)C[C@H](OC(=O)[C@H](O)[C@@H](NC(=O)c4ccccc4)c4ccccc4)C(C)=C1C3(C)C)[C@]1(OC(C)=O)CO[C@@H]1C[C@@H]2O + Cc1[nH]c2ccc(F)cc2c1-c1nc2c3cccnc3c3ncccc3c2[nH]1
84.6

Need viability, T/C, item Cn1ncnc1[C@H]1c2n[nH]c(=O)c3cc(F)cc(c23)N[C@@H]1c1ccc(F)cc1 + CN(C)c1ccc(Nc2c3ccc(NC(=O)CCN4CCCC4)cc3nc3cc(NC(=O)CCN4CCCC4)ccc23)cc1
110

Need viability, T/C, item CC1COCCN1c1cc(C2(O)CC3CCC(C2)O3)c2cnn(-c3ccn[nH]3)c2n1 (centres undefined) + Cc1[nH]c2ccc(F)cc2c1-c1nc2c3cccnc3c3ncccc3c2[nH]1
71.7

Need viability, T/C, item Cn1ncnc1[C@H]1c2n[nH]c(=O)c3cc(F)cc(c23)N[C@@H]1c1ccc(F)cc1 + Cc1cnc(CNC(=O)c2c(=O)c3ccc(N4CCCN(C)CC4)nc3n3c2sc2ccccc23)cn1
102

* * *

Quick reference: viability, T/C of the listed items.
# System: 282377-053-R-J1-PDC complex spheroids, viability
# ASSAY_SUMMARY: Anticancer human tumor 282377-053-R-J1-PDC cell line growth inhibition [GQUAD];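 also: spheroids exposed to compounds for 7 days before readout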;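 as to viability, T/C: percent of vehicle DMSO control viability with 100% = untreated-like growth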
# COND: second compound 3.16 µM; first compound 3.16 µM; stronger effect = lower value
Kindly answer with a numeric value in %, unit omitted.

Illustrative cases are given below, each with its answer.
- COMPOUND: "O=c1[nH]cc(F)c(=O)[nH]1 + Cc1[nH]c2ccc(F)cc2c1-c1nc2c3cccnc3c3ncccc3c2[nH]1"
  MEASURED_PARAMETER: "viability, T/C"
  UNIT_ABBREV: "%"
  NUMERIC_VALUE: 58.8
- COMPOUND: "COc1ccc([C@@H](O)c2cc(-c3ncnc4cc(N5CCOCC5)ccc34)c(F)cc2Cl)nn1 + Cc1[nH]c2ccc(F)cc2c1-c1nc2c3cccnc3c3ncccc3c2[nH]1"
  MEASURED_PARAMETER: "viability, T/C"
  UNIT_ABBREV: "%"
  NUMERIC_VALUE: 33.2

We now examine a further compound.
Need viability, T/C, item CC1COCCN1c1cc(-c2ccnn2C)c2ccnc(-c3ccn[nH]3)c2n1 (stereo not drawn) + Cc1[nH]c2ccc(F)cc2c1-c1nc2c3cccnc3c3ncccc3c2[nH]1
4.88

* * *

# Tested on: 282377-053-R-J1-PDC complex spheroids, viability
# ASSAY_SUMMARY: Anticancer human tumor 282377-053-R-J1-PDC cell line growth inhibition [GQUAD];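 also: spheroids exposed to compounds for 7 days before readout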
# COND: curve of first compound; second compound 1 µM
Quick reference: IC50 of the listed items.

- COMPOUND: "O=c1[nH]cc(F)c(=O)[nH]1 + CN(C)c1ccc(Nc2c3ccc(NC(=O)CCN4CCCC4)cc3nc3cc(NC(=O)CCN4CCCC4)ccc23)cc1"
  IC50: "> 10 µM"
- COMPOUND: "Cc1[nH]c2ccccc2c1CCNCc1ccc(/C=C/C(=O)NO)cc1 + Cc1[nH]c2ccc(F)cc2c1-c1nc2c3cccnc3c3ncccc3c2[nH]1"
  IC50: "> 0.316 µM"
- COMPOUND: "COc1ncnc(C2CC2)c1-c1ncc2cnn(Cc3ccc(-c4nc(C(F)(F)F)cn4C(C)C)cc3)c2n1 + CN(C)c1ccc(Nc2c3ccc(NC(=O)CCN4CCCC4)cc3nc3cc(NC(=O)CCN4CCCC4)ccc23)cc1"
  IC50: "> 10 µM"

We now examine a further compound.
Need IC50, item O=c1[nH]cc(F)c(=O)[nH]1 + Cc1[nH]c2ccc(F)cc2c1-c1nc2c3cccnc3c3ncccc3c2[nH]1
> 10 µM

* * *

Quick reference: viability, T/C of the listed items.
# Tested on: 282377-053-R-J1-PDC complex spheroids, viability
# ASSAY_SUMMARY: Anticancer human tumor 282377-053-R-J1-PDC cell line growth inhibition [GQUAD];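 also: spheroids exposed to compounds for 7 days before readout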;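 as to viability, T/C: percent of vehicle DMSO control viability with 100% = untreated-like growth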
# COND: second compound 1 µM; first compound 3.16 µM; stronger effect = lower value
Kindly answer with a numeric value in %, unit omitted.

Illustrative cases are given below, each with its answer.
- COMPOUND: "O=c1[nH]cc(F)c(=O)[nH]1 + CN(C)c1ccc(Nc2c3ccc(NC(=O)CCN4CCCC4)cc3nc3cc(NC(=O)CCN4CCCC4)ccc23)cc1"
  MEASURED_PARAMETER: "viability, T/C"
  UNIT_ABBREV: "%"
  NUMERIC_VALUE: 77.8
- COMPOUND: "COc1ncnc(C2CC2)c1-c1ncc2cnn(Cc3ccc(-c4nc(C(F)(F)F)cn4C(C)C)cc3)c2n1 + Cc1[nH]c2ccc(F)cc2c1-c1nc2c3cccnc3c3ncccc3c2[nH]1"
  MEASURED_PARAMETER: "viability, T/C"
  UNIT_ABBREV: "%"
  NUMERIC_VALUE: 89.5

We now examine a further compound.
Need viability, T/C, item CC1COCCN1c1cc(C2(S(C)(=N)=O)CC2)nc(-c2ccnc3[nH]ccc23)n1 (stereo not drawn) + Cc1[nH]c2ccc(F)cc2c1-c1nc2c3cccnc3c3ncccc3c2[nH]1
57.7

* * *

Quick reference: viability, T/C of the listed items.
# System: 282377-053-R-J1-PDC complex spheroids, viability
# ASSAY_SUMMARY: Anticancer human tumor 282377-053-R-J1-PDC cell line growth inhibition [GQUAD];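 also: spheroids exposed to compounds for 7 days before readout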;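 as to viability, T/C: percent of vehicle DMSO control viability with 100% = untreated-like growth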
# COND: second compound 0.0316 µM; first compound 0.316 µM; stronger effect = lower value
Kindly answer with a numeric value in %, unit omitted.

Illustrative cases are given below, each with its answer.
- MOLECULE: "CC1COCCN1c1cc(-c2ccnn2C)c2ccnc(-c3ccn[nH]3)c2n1 (centres undefined) + CN(C)c1ccc(Nc2c3ccc(NC(=O)CCN4CCCC4)cc3nc3cc(NC(=O)CCN4CCCC4)ccc23)cc1"
  UNIT_ABBREV: "%"
  NUMERIC_VALUE: 61.9
- MOLECULE: "CC1COCCN1c1cc(C2(O)CC3CCC(C2)O3)c2cnn(-c3ccn[nH]3)c2n1 (centres undefined) + Cc1cnc(CNC(=O)c2c(=O)c3ccc(N4CCCN(C)CC4)nc3n3c2sc2ccccc23)cn1"
  UNIT_ABBREV: "%"
  NUMERIC_VALUE: 39.7
- MOLECULE: "CC[C@@]1(O)C(=O)OCc2c1cc1n(c2=O)Cc2cc3c(CN(C)C)c(O)ccc3nc2-1 + Cc1cnc(CNC(=O)c2c(=O)c3ccc(N4CCCN(C)CC4)nc3n3c2sc2ccccc23)cn1"
  UNIT_ABBREV: "%"
  NUMERIC_VALUE: 66.7

We now examine a further molecule.
Need viability, T/C, item O=c1[nH]cc(F)c(=O)[nH]1 + Cc1[nH]c2ccc(F)cc2c1-c1nc2c3cccnc3c3ncccc3c2[nH]1
126
